Assay info: in-vivo PK profile, mouse PK
Condition summary: mouse, in vivo; ICR mice, PO 10 mg/kg
Observation type: AUC(0-t)

molecule="CCN1CCN(c2ccc(Nc3cc(-n4c(Nc5c(Cl)c(OC)cc(OC)c5Cl)nc5ccccc54)ncn3)cc2)CC1 [Example 1]" reading="151 ng·h/mL"

----------
Subject of test: CYP2C19 (Homo sapiens)
Assay info: inhibition activity against CYPs (cytochromes P450)
Format: in vitro ADME
Condition summary: human; concentration 0.1 μM
Observation type: inhibition at 0.1 µM (%)

line_notation=CCN1CCN(c2ccc(Nc3cc(-n4c(Nc5c(Cl)c(OC)cc(OC)c5Cl)nc5ccccc54)ncn3)cc2)CC1 value_units=% reading=2.72

----------
Assay info: in-vivo PK profile, rat PK
Condition summary: in vivo; Sprague-Dawley rat, IV 5 mg/kg
Excerpt: The in-vivo PK profile (mouse PK/ICR mice and rat PK/Sprague-Dawley rat) of N-(2,6-dichloro-3,5-dimethoxyphenyl)-1-(6-((4-(4-ethylpiperazin-1-yl)phenyl)amino)pyrimidin-4-yl)-1H-benz[d]imidazol-2-amine synthesized in Example 1 is as follows.
Observation type: Tmax

line_notation=CCN1CCN(c2ccc(Nc3cc(-n4c(Nc5c(Cl)c(OC)cc(OC)c5Cl)nc5ccccc54)ncn3)cc2)CC1 reading="4.98 min"

----------
Subject of test: CYP2C9 (Homo sapiens, UniProt P11712)
Sequence (P11712 whole entry): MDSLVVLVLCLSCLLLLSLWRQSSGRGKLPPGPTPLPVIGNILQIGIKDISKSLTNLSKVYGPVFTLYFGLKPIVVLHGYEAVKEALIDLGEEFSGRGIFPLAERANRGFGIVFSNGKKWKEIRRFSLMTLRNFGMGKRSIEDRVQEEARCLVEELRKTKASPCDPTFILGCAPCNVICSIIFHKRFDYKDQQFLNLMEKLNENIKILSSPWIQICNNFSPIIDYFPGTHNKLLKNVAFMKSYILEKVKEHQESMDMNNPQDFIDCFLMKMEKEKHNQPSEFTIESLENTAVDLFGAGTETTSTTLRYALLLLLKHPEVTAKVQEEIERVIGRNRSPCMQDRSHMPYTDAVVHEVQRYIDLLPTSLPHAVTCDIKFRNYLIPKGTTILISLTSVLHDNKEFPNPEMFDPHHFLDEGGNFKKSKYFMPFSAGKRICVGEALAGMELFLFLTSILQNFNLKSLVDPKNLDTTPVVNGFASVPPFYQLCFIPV
Assay info: inhibition activity against CYPs (cytochromes P450)
Assay type: in vitro ADME
Condition summary: human; concentration 0.5 μM
Observation type: inhibition at 0.5 µM (%)

line_notation=CCN1CCN(c2ccc(Nc3cc(-n4c(Nc5c(Cl)c(OC)cc(OC)c5Cl)nc5ccccc54)ncn3)cc2)CC1 value_units=% reading=8.79

----------
Subject of test: CYP2C9 (Homo sapiens)
Assay info: inhibition activity against CYPs (cytochromes P450)
Format: in vitro ADME
Condition summary: human; concentration 5 μM
Observation type: inhibition at 5 µM (%)

line_notation=CCN1CCN(c2ccc(Nc3cc(-n4c(Nc5c(Cl)c(OC)cc(OC)c5Cl)nc5ccccc54)ncn3)cc2)CC1 reading=24.6

----------
Subject of test: CYP2C9 (Homo sapiens, UniProt P11712)
Assay info: inhibition activity against CYPs (cytochromes P450)
Assay type: in vitro ADME
Condition summary: human; concentration 25 μM
Method: The inhibition activity (inhibition rate, %) of N-(2,6-dichloro-3,5-dimethoxyphenyl)-1-(6-((4-(4-ethylpiperazin-1-yl)phenyl)amino)pyrimidin-4-yl)-1H-benz[d]imidazol-2-amine synthesized in Example 1, as a representative compound of the present invention, against CYPs (cytochromes P450) was measured in order to investigate the risk of drug side effects.
Observation type: inhibition at 25 µM (%)

line_notation=CCN1CCN(c2ccc(Nc3cc(-n4c(Nc5c(Cl)c(OC)cc(OC)c5Cl)nc5ccccc54)ncn3)cc2)CC1 subject_of_test="CYP2C9 (Homo sapiens, UniProt P11712)" observation_type="inhibition at 25 µM" reading=52.4

----------
Subject of test: CYP2D6 (Homo sapiens, UniProt P10635)
Sequence (P10635 whole entry): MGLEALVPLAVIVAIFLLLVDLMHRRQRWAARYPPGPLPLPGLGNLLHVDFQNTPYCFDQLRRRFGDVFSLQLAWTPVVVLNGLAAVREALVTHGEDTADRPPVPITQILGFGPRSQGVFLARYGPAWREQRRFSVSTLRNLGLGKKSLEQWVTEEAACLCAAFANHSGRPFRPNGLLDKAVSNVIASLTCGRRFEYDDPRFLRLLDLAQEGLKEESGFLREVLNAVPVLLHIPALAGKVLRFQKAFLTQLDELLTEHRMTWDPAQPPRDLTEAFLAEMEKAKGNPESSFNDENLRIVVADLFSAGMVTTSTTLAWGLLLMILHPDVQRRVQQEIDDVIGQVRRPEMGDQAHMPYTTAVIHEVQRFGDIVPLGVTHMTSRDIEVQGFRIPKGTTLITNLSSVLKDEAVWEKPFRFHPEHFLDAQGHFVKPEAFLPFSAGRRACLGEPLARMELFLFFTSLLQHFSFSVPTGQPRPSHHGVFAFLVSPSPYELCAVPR
Observation type: IC50

line_notation=CCN1CCN(c2ccc(Nc3cc(-n4c(Nc5c(Cl)c(OC)cc(OC)c5Cl)nc5ccccc54)ncn3)cc2)CC1 observation_type=IC50 reading="> 50 µM"

----------
Subject of test: CYP3A4 (Homo sapiens)
Sequence (P08684 whole entry): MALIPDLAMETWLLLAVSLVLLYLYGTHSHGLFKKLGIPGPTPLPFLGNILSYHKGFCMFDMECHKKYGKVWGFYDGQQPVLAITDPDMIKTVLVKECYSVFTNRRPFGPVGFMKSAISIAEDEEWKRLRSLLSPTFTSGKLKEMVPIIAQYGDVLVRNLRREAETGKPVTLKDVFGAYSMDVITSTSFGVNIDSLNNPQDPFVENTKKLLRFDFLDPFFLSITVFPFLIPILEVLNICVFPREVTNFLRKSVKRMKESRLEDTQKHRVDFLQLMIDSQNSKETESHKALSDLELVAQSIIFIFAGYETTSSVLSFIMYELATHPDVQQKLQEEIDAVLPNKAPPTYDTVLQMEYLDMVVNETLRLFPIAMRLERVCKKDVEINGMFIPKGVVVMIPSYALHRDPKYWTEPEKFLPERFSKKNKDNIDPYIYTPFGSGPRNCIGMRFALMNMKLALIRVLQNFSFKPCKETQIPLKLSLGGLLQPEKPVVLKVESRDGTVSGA
Assay info: inhibition activity against CYPs (cytochromes P450)
Type: in vitro ADME
Condition summary: human; concentration 0.1 μM
Observation type: inhibition at 0.1 µM (%)

line_notation=CCN1CCN(c2ccc(Nc3cc(-n4c(Nc5c(Cl)c(OC)cc(OC)c5Cl)nc5ccccc54)ncn3)cc2)CC1 subject_of_test="CYP3A4 (Homo sapiens)" value_units=% reading=3.09

----------
Subject of test: CYP1A2 (Homo sapiens, UniProt P05177)
pIC50: −log10 of the molar value.
Observation type: pIC50

compound="CCN1CCN(c2ccc(Nc3cc(-n4c(Nc5c(Cl)c(OC)cc(OC)c5Cl)nc5ccccc54)ncn3)cc2)CC1 [Example 1]" reading="< 4.30"

----------
Assay info: in-vivo PK profile, mouse PK
Condition summary: mouse, in vivo; ICR mice, IV 5 mg/kg; read-out: Vz
Observation type: Vd (L/kg)

compound="CCN1CCN(c2ccc(Nc3cc(-n4c(Nc5c(Cl)c(OC)cc(OC)c5Cl)nc5ccccc54)ncn3)cc2)CC1 [Example 1]" observation_type=Vd reading=37.7

----------
Subject of test: CYP1A2 (Homo sapiens)
Sequence (P05177 1-516): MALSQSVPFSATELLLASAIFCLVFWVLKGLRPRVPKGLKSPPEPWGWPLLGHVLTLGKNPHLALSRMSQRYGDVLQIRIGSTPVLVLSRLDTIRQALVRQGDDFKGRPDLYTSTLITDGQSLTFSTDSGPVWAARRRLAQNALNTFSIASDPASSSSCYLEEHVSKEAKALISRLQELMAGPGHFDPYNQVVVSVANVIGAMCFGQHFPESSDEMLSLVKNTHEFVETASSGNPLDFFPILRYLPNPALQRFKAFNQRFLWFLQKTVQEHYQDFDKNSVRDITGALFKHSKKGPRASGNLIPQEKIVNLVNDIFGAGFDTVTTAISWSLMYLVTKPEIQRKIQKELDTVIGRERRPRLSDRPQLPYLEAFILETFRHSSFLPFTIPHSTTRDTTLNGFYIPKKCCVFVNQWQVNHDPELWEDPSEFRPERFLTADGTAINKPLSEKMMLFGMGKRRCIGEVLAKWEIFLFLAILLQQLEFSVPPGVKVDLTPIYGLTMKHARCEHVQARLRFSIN
Assay info: inhibition activity against CYPs (cytochromes P450)
Type: in vitro ADME
Condition summary: human; concentration 5 μM
Observation type: inhibition at 5 µM (%)

molecule="CCN1CCN(c2ccc(Nc3cc(-n4c(Nc5c(Cl)c(OC)cc(OC)c5Cl)nc5ccccc54)ncn3)cc2)CC1 [Example 1]" value_units=% reading=-1.9

----------
Assay info: in-vivo PK profile, mouse PK
Condition summary: mouse, in vivo; ICR mice, PO 10 mg/kg
Observation type: Tmax (h)

line_notation=CCN1CCN(c2ccc(Nc3cc(-n4c(Nc5c(Cl)c(OC)cc(OC)c5Cl)nc5ccccc54)ncn3)cc2)CC1 observation_type=Tmax reading=6

----------
Assay info: microsomal stability
Assay type: in vitro ADME, Human
Condition summary: microsomes; Human microsomal stability
Observation type: half-life (min)

compound="CCN1CCN(c2ccc(Nc3cc(-n4c(Nc5c(Cl)c(OC)cc(OC)c5Cl)nc5ccccc54)ncn3)cc2)CC1 [Example 1]" reading=33.9

----------
Subject of test: CYP2D6 (Homo sapiens)
Assay info: inhibition activity against CYPs (cytochromes P450)
Assay type: in vitro ADME
Condition summary: human; concentration 5 μM
Observation type: inhibition at 5 µM (%)

line_notation=CCN1CCN(c2ccc(Nc3cc(-n4c(Nc5c(Cl)c(OC)cc(OC)c5Cl)nc5ccccc54)ncn3)cc2)CC1 reading=-2.56

----------
Subject of test: CYP2D6 (Homo sapiens)
Assay info: inhibition activity against CYPs (cytochromes P450)
Assay type: in vitro ADME
Condition summary: concentration 10 μM
Observation type: inhibition at 10 µM (%)

line_notation=CCN1CCN(c2ccc(Nc3cc(-n4c(Nc5c(Cl)c(OC)cc(OC)c5Cl)nc5ccccc54)ncn3)cc2)CC1 value_units=% reading=6.12

----------
Assay info: in-vivo PK profile, rat PK
Condition summary: in vivo; Sprague-Dawley rat, IV 5 mg/kg
Observation type: AUC(0-t) (ng·h/mL)

line_notation=CCN1CCN(c2ccc(Nc3cc(-n4c(Nc5c(Cl)c(OC)cc(OC)c5Cl)nc5ccccc54)ncn3)cc2)CC1 reading=844

----------
Subject of test: CYP2D6 (Homo sapiens, UniProt P10635)
Assay info: inhibition activity against CYPs (cytochromes P450)
Type: in vitro ADME
Condition summary: human; concentration 0.5 μM
Observation type: inhibition at 0.5 µM (%)

compound="CCN1CCN(c2ccc(Nc3cc(-n4c(Nc5c(Cl)c(OC)cc(OC)c5Cl)nc5ccccc54)ncn3)cc2)CC1 [Example 1]" reading=-4.76

----------
Subject of test: UniProt P08684
Assay info: inhibition activity against CYPs (cytochromes P450)
Assay type: in vitro ADME
Condition summary: human; concentration 5 μM
Observation type: inhibition at 5 µM (%)

compound="CCN1CCN(c2ccc(Nc3cc(-n4c(Nc5c(Cl)c(OC)cc(OC)c5Cl)nc5ccccc54)ncn3)cc2)CC1 [Example 1]" subject_of_test="UniProt P08684" reading=24.4

----------
Subject of test: CYP2C19 (Homo sapiens, UniProt P33261)
Sequence (P33261 whole entry): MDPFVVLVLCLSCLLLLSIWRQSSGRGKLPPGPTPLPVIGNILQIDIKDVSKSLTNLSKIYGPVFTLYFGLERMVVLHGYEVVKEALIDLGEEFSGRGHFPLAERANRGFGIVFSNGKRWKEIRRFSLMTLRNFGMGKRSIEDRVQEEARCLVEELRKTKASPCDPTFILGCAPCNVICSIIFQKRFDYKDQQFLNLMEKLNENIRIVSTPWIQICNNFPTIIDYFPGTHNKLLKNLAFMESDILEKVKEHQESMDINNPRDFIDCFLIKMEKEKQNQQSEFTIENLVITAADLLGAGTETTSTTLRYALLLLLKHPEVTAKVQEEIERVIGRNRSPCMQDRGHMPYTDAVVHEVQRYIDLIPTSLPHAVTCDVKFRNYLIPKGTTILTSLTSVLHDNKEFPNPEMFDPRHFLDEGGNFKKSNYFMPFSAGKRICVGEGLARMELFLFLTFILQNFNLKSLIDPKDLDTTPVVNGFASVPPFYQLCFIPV
Assay info: inhibition activity against CYPs (cytochromes P450)
Format: in vitro ADME
Condition summary: human; concentration 0.5 μM
Observation type: inhibition at 0.5 µM (%)

molecule="CCN1CCN(c2ccc(Nc3cc(-n4c(Nc5c(Cl)c(OC)cc(OC)c5Cl)nc5ccccc54)ncn3)cc2)CC1 [Example 1]" reading=3.23

----------
Assay info: in-vivo PK profile, mouse PK
Condition summary: mouse, in vivo; ICR mice, IV 5 mg/kg
Observation type: half-life (h)

line_notation=CCN1CCN(c2ccc(Nc3cc(-n4c(Nc5c(Cl)c(OC)cc(OC)c5Cl)nc5ccccc54)ncn3)cc2)CC1 observation_type=half-life reading=1.83
